test system: TNIK; conditions: concentration: 1 μM, replicates: in singlicate; n = 1;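 also: KINOMEscan kinase panel screen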
Response field label takes True when %Inh is strictly below 1% and False in all other cases.

Please determine if "Cn1cc(-c2ccc3c(c2)CCN3C(=O)Cc2cccc(C(F)(F)F)c2)c2c(N)ncnc21" is below 1% in terms of %Inh. True

Please determine if "Nc1nc(-c2ccccn2)c(-c2ccnc3ccccc23)s1" is below 1% in terms of %Inh. False

Please determine if "O=C(c1ccc(-c2cc(-c3c[nH]nc3-c3ccccn3)ccn2)cc1)N1CCCC1" is below 1% in terms of %Inh. False

Please determine if "CC(C)N1CCC(n2cnc(-c3ccc(F)cc3)c2-c2ccnc(N)n2)CC1" is below 1% in terms of %Inh. False

Please determine if "CCc1nc(-c2cccc(C)c2)c(-c2ccnc(NC(=O)c3ccccc3)c2)s1" is below 1% in terms of %Inh. False

Please determine if "CS(=O)(=O)CCNCc1ccc(-c2ccc3ncnc(Nc4ccc(OCc5ccccc5)c(Cl)c4)c3c2)o1.Cl" is below 1% in terms of %Inh. True

Please determine if "Clc1cc(Nc2ncnc3cc[nH]c23)ccc1OCc1ccccn1" is below 1% in terms of %Inh. False

Please determine if "OCCOCCn1ccc2ncnc(Nc3ccc(Oc4cccc(Cl)c4)c(Cl)c3)c21" is below 1% in terms of %Inh. True
